Where these numbers come from: PubChem BioAssay (EPA / NIEHS)

Assay: CEETOX_H295R_OHPREG: CeeTox H295R High-throughput Steroidogenesis Assay for OH-Pregnenolone (OHPREG) (AID 2283434)
Conditions: actives raise or lower the signal
Calls of active or inactive are those of the source. The calls were made as follows: active = hit-call score of the fitted dose curve at least 0.9, where 1 is the maximum; inactive = score below 0.9.
Use one of these outcomes when replying: active, inactive

For orientation, consider the following solved cases.
{"compound": "O=C(c1ccccc1)c1ccc(Cl)cc1", "label class": "inactive"}
{"compound": "N#Cc1ccccc1O", "label class": "inactive"}
{"compound": "CCN(CC)c1ccc(N=Nc2ccccc2)cc1", "label class": "inactive"}
{"compound": "Nc1cccnc1N", "label class": "inactive"}

## Input Hey, what did the test say about CCCCCCCCCCCCC[N+](C)(C)Cc1ccccc1 ?
## Output active

## Input Now the compound CCN(CC)c1ccc(C=O)cc1
## Output inactive

## Input Now the compound CCCCC(CC)COC(=O)c1ccc(N(C)C)cc1 (stereo not given)
## Output active

###

Read-out: Tissue Factor, F3 (gene 2152)
Assay: BSK_LPS_TissueFactor: BioMAP Diversity Plus: LPS Assay for Tissue Factor Biomarker Activity (AID 2283084)
Conditions: primary human HUVEC with PBMC; actives raise or lower the signal
Active and inactive are the calls of the source. Rule for the calls: active = hit-call score of the fitted dose curve at least 0.9, where 1 is the maximum; inactive = score below 0.9.
Use one of these outcomes when replying: active, inactive

{"molecule": "Cc1cc(C)c(O)c(C(C)(C)C)c1", "label class": "active"}

## Input Hey, what did the test say about OCC(F)(F)C(F)(F)C(F)(F)C(F)(F)C(F)(F)C(F)(F)C(F)(F)C(F)(F)CO ?
## Output inactive

## Input Now the molecule CCN(CC)c1ccc(C=O)c(O)c1
## Output inactive

## Input Now the molecule O=S(=O)(O)CCC(F)(F)C(F)(F)C(F)(F)C(F)(F)C(F)(F)C(F)(F)C(F)(F)C(F)(F)F
## Output inactive

## Input Now the molecule CC1=CC2C3C=CC(C3)C2C1C (stereo unspecified)
## Output inactive

###

Assay: BSK_SAg_PBMCCytotoxicity: PBMC Cytotoxicity Assessment in the BioMAP Diversity Plus: SAg Assay (AID 2283093);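 also: PBMC viability measured as Alamar Blue reduction fluorescence at 546/580 nm; fitted both ways against DMSO so a hit may be loss or gain of signal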
Settings: primary human HUVEC with PBMC
Active and inactive are the calls of the source. The calls were made as follows: active = hit-call score of the fitted dose curve at least 0.9, where 1 is the maximum; inactive = score below 0.9.
Use one of these outcomes when replying: yes (1) = active, no (0) = inactive

For orientation, consider the following solved cases.
{"compound": "O=C(O)C(F)(F)C(F)(F)C(F)(F)C(F)(F)C(F)(F)C(F)(F)C(F)F", "label class": "no (0)"}
{"compound": "O=C(F)C1(F)C(F)(F)C(F)(F)C(F)(F)C(F)(F)C1(F)F", "label class": "no (0)"}
{"compound": "FC(F)(F)C(F)(F)C(F)(F)C(F)(F)C(F)(F)C(F)(F)C(F)(F)CCI", "label class": "no (0)"}
{"compound": "O=S(=O)(OCC(F)(F)F)C(F)(F)C(F)(F)C(F)(F)C(F)(F)F", "label class": "no (0)"}
{"compound": "O=C1C=CC(=O)N1c1ccc(Cc2ccc(N3C(=O)C=CC3=O)cc2)cc1", "label class": "yes (1)"}

## Input Hey, what did the test say about COC(F)(C(F)F)C(F)(F)F (stereo unspecified) ?
## Output no (0)

## Input Now the compound Cc1ccc(O)c(-n2nc3ccccc3n2)c1
## Output no (0)

## Input Now the compound CCN(CC)c1ccc(N=Nc2ccccc2)cc1
## Output yes (1)

## Input Now the compound CC(C)(C)c1cc(CCC(=O)NCCCCCCNC(=O)CCc2cc(C(C)(C)C)c(O)c(C(C)(C)C)c2)cc(C(C)(C)C)c1O
## Output no (0)

## Input Now the compound OCCCCC(F)(F)C(F)(F)C(F)(F)C(F)(F)F
## Output no (0)

## Input Now the compound Cc1cc(C)c(O)c(C(C)(C)C)c1
## Output yes (1)
